target: T1, cell-expressed CD40 (UniProt P25942 21-277, limits assumed); assay: cell binding on HEK-Blue-CD40L cells, Alexa-Fluor-488 anti-human IgG, high content imaging
T1 construct: whole, on cells; also called CD40 on HEK-Blue-CD40L cells; cell surface CD40
T1 sequence (P25942 21-277 limits assumed): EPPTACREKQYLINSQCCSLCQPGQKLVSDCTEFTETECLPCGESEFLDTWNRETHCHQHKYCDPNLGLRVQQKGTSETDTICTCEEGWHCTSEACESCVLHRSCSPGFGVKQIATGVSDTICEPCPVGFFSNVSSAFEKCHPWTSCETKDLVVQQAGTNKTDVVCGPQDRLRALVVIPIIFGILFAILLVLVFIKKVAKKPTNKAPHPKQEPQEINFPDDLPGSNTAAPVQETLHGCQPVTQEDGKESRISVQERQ
So I've got a bunch of binders here, and I need their EC50 values.
Provide the reading as a plain figure in µg/mL.

Recorded EC50 of MAB-16-0346 (antibody, V domains shown, humanized anti-CD40 IgG1-LALA antibody of the invention) VH: EVQLEESGGGLVQPGGSLRLSCAASGFDFSTNAVSWVRQAPGKGLEWVGSISAGSSGSTYYASWAKGRFTISKDTSKTTLYLQMNSLRAEDTATYFCARGYTYLTLWGQGTLVTVSS VL: DIVMTQSPSSLSASVGDRVTITCQASHSISSTYLSWYQQKPGQAPKLLIYRASTLASGVPSRFSGSGSGTDFTLTISSLQPEDFATYYCQYTDYGSSYVSTFGQGTKVVIK , please.
0.0495

Recorded EC50 of MAB-16-0262 (antibody, V domains shown, Humanized IgG1-LALA (L234A, L235A in the human IgG1 Fc, EU numbering)) VH: EVQLEESGGGLVQPGGSLRLSCAASGFDFSTNAMCWVRQAPGKGLEWVACIAAGSSIITYYASWAKGRFTISKDTSKTTLYLQMNSLRAEDTAVYFCARGLSRFALWGQGTLVTVSS VL: DIVMTQSPSSLSASVGDRVTITCQASQSISSYLSWYQQKPGQAPKLLIYLTSTLASGVPSRFSGSGSGTDFTLTISSLQPEDFATYYCQGYYSSSSYVSNGFGQGTKVVIK , please.
0.0063

Recorded EC50 of MAB-16-0484 (antibody, V domains shown, humanized anti-CD40 IgG1-LALA antibody of the invention) VH: EVQLEESGGGLVQPGGSLRLSCAASGIDFSRYYYICWVRQAPGKGPEWVACFANGDGSTYYASWAKGRFTISKDTSKTTLYLQMNSLRAEDTATYFCARGADYSGGAAAFNLWGQGTLVTVSS VL: DIQMTQSPSSLSASVGDRVTITCQASQSISSRLAWYQQKPGQAPKLLIYRASTLASGVPSRFSGSGSGTDFTLTISSLQPEDFATYYCQDYYGSSTEYNAFGQGTKVVIK , please.
0.0219

Recorded EC50 of MAB-16-0489 (antibody, V domains shown, humanized anti-CD40 IgG1-LALA antibody of the invention) VH: EVQLEESGGGLVQPGASLRLSCAASGIDFSRYFYVCWVRQAPGKGLEWVGCFANHDDSIYYAGWMNGRFTISKDTSKTTLYLQMNSLRAEDTATYFCARGVDYTVGYGGAAFNLWGQGTLVTVSS VL: DIVMTQSPSSLSASVGDRVTITCQASQSIGSYLSWYQQKPGQAPKLLIYRATTLASGVPSRFSGSGSGTDFTLTISSLQPEDFATYYCQSYYRDSSSSAFGQGTKVVIK , please.
0.0032
